# key: entry, value: IC50
Biological target: human MDM2 (GST-hMDM2 1-188), interaction with biotinylated-p53 (1-83) (Homo sapiens, UniProt Q00987)
Construct: Amino acid residues 1-188 of human MDM2 were expressed
Sequence (Q00987 1-188): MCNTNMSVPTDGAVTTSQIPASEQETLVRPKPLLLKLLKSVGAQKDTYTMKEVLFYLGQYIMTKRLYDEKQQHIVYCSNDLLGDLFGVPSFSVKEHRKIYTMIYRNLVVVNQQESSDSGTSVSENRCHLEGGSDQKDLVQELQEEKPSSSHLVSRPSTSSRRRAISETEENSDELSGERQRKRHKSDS
Experiment: improved HTRF assay (HTRF2 assay), inhibition of HDM2-p53 interaction
Settings: 0.2 nM GST-hMDM2, 0.5 nM biotinylated-p53, 100 mM KF
Method: Residues 1-83 of human p53 were expressed as an amino-terminal AviTag™-TrxA-6xHis fusion protein (biotinylated p53) in E. coli. Each protein was purified from cell paste by affinity chromatography. Specifically, 10 uL of GST-hMDM2 was incubated with 10 ul of diluted compound (various concentrations, serially diluted) in 10% DMSO for 20 minutes at room temperature. […] Time-resolved fluorescence readings were measured on a microplate multilabel reader. […]

{"compound": "CC[C@@H](CS(=O)(=O)C(C)(C)C)N1C(=O)[C@@H](CNC(=O)N(CC)CC)O[C@H](c2cccc(Cl)c2)[C@H]1c1ccc(Cl)cc1 (single isomer, unassigned) [Example 375]", "IC50, nM": 55}
{"compound": "CC[C@@H]([C@H](C)S(=O)(=O)C(C)(C)C)N1C(=O)[C@@H](CC(=O)O)O[C@H](c2cccc(Cl)c2)[C@H]1c1ccc(Cl)cc1 (single isomer, unassigned) [Example 419]", "IC50, nM": 4}
{"compound": "CC[C@@H](CN(c1ccccc1F)S(=O)(=O)C1CC1)N1C(=O)[C@@](C)(CC(=O)O)O[C@H](c2cccc(Cl)c2)[C@H]1c1ccc(Cl)cc1 (single isomer, unassigned) [Example 329]", "IC50, nM": 138}
{"compound": "CC[C@@H](CS(=O)(=O)C(C)(C)C)N1C(=O)[C@@H](C[C@@H](O)CO)O[C@H](c2cccc(Cl)c2)[C@H]1c1ccc(Cl)cc1 (single isomer, unassigned) [Example 372]", "IC50, nM": 67}
{"compound": "CC(C)[C@@H](CS(=O)(=O)C(C)(C)C)N1C(=O)[C@@H](CC(=O)O)O[C@H](c2cccc(Cl)c2)[C@H]1c1ccc(Cl)c(F)c1 (single isomer, unassigned) [Example 312]", "IC50, nM": 279}
{"compound": "CC(C)(O)CS(=O)(=O)C[C@H](C1CC1)N1C(=O)[C@@H](CC(=O)O)O[C@H](c2cccc(Cl)c2)[C@H]1c1ccc(Cl)cc1 (single isomer, unassigned) [Example 289]", "IC50, nM": 2}
{"compound": "CC(C)(C)S(=O)(=O)C[C@H](C1CCC1)N1C(=O)[C@@H](CC(=O)O)O[C@H](c2cccc(Cl)c2)[C@H]1c1ccc(Cl)cc1 (single isomer, unassigned) [Example 271]", "IC50, nM": 5}
{"compound": "CC(C)(C)S(=O)(=O)C[C@H](C1CC1)N1C(=O)[C@@](C)(CC(=O)O)O[C@H](c2cccc(Cl)c2)[C@H]1c1ccc(Cl)cc1 (single isomer, unassigned) [Example 335]", "IC50, nM": 3}
{"compound": "CC[C@@H](CN(c1ccccc1F)S(=O)(=O)C1CC1)N1C(=O)[C@@H]([C@@H](C)C(=O)O)O[C@H](c2cccc(Cl)c2)[C@H]1c1ccc(Cl)cc1 (single isomer, unassigned) [Example 252]", "IC50, nM": 1}
{"compound": "CC[C@@H](CS(=O)(=O)c1ccccc1Cl)N1C(=O)[C@@H](CC(=O)O)O[C@H](c2cccc(Cl)c2)[C@H]1c1ccc(Cl)cc1 (single isomer, unassigned) [Example 138]", "IC50, nM": 29}
